# Measured Target: T1, plasma-membranous human MSLN on cell lines (H226, HPAC, H292, OVCAR-3, MeT-5A) (human, UniProt Q13421 296-598)
# T1 construct: whole, on cells; also called human MSLN on H226 cells; mesothelin on target cells
# Test Protocol: cELISA on H226 cells, HRP-Protein L
Attribute: pEC50
Bear in mind: pEC50 is minus log10 of a mol/L concentration; give just that figure.

INSERT INTO measurements (binder, recorded_value) VALUES
  ('anti-MSLN scFv PRO2309 (scFv, VL/VH interdomain disulfide variant; also called 54-32-A07-sc09; PRO1925-S14R-T87R-T22K-DIS) scFv: ALQMTQSPSSLSARVGDRVTIKCQASQSISNYLAWYQQKPGKPPKFLIYDASDLASGVPSRFSGSGSGRDFTLTISSLQPEDFATYYCQQVYDSNNVENVFGCGTKVTVLGGGGGSGGGGSGGGGSGGGGSQSQLVESGGGLVQPGGSLRLSCAVSGFSLSSYAMGWVRQAPGKCLEYIGYISKIGTTYYASWAKGRFTISKDNSKNTVYLQMNSLRAEDTAVYFCARGSSSGGYLDDGFDPWGQGTLVTVSS', 8.95);

Quick one: pEC50 of anti-MSLN scFv PRO1783 (scFv, also called 54-01-G02-sc01) scFv: DIQMTQSPSSLSASVGDRVTITCQASQNIYSNLAWYQQKPGKAPKLLIYDASDLASGVPSRFSGSGSGTDFTLTISSLQPEDFATYYCQQVRSSSDIDNPFGTGTKVTVLGGGGGSGGGGSGGGGSGGGGSQVQLVESGGGLVQPGGSLRLSCAASGFSLSSYAMGWVRQAPGKGLEWIGYISTINNTYYASWAKGRFTISRDNSKNTVYLQMNSLRAEDTAVYYCAREIRSGWVDYGFSIWGQGTLVTVSS ?
8.84

I am curious: what pEC50 value has been reported for anti-MSLN scFv PRO1922 (scFv, also called 54-21-H03-sc01) scFv: DIQMTQSPSSLSASVGDRVTITCQASESIYSSLAWYQQKPGKAPKLLIYLASTLASGVPSRFSGSGSGTDFTLTISSLQPEDFATYYCQSTDYTTSTHRNSFGTGTKVTVLGGGGGSGGGGSGGGGSGGGGSEVQLVESGGGLVQPGGSLRLSCAASGFSFSTTYYMCWVRQAPGKGLEWIGCTNTASSVRTYYATWAKGRFTISRDNSKNTVYLQMNSLRAEDTAVYYCARDMGFADYALNLWGQGTLVTVSS ?
9.54

# input binder: anti-MSLN scFv PRO1925 (scFv, also called 54-32-A07-sc02) scFv: ALQMTQSPSSLSASVGDRVTITCQASQSISNYLAWYQQKPGKPPKFLIYDASDLASGVSSRFSGSGSGTDFTLTISSLQPEDFATYYCQQVYDSNNVENVFGTGTKVTVLGGGGGSGGGGSGGGGSGGGGSQSQLVESGGGLVQPGGSLRLSCAVSGFSLSSYAMGWVRQAPGKGLEYIGYISKIGTTYYASWAKGRFTISKDNSKNTVYLQMNSLRAEDTAVYFCARGSSSGGYLDDGFDPWGQGTLVTVSS ; wanted: its pEC50
9.00

Which measured pEC50 value corresponds to reference anti-MSLN scFv PRO1795 (scFv, also called 54-22-H03-sc01) scFv: DIQMTQSPSSLSASVGDRVTITCQASESIGNYLAWYQQKPGKAPKLLIYSASTLASGVPSRFSGSGSGTDFTLTISSLQPEDFATYYCQSTDYGDSYIFGTGTKVTVLGGGGGSGGGGSGGGGSGGGGSEVQLVESGGGLVQPGGSLRLSCAASGISVSNDYYMCWVRQAPGKGLEWIGCISTYIGNTHYASWAKGRFTISRDNSKNTVYLQMNSLRAEDTAVYYCAKNAGYPGYRYAIDLWGQGTLVTVSS ?
9.60

Consider the binder shown here: anti-MSLN scFv PRO2306 (scFv, also called 54-32-A07-sc06; PRO1925-S14R-T87R-T22K) scFv: ALQMTQSPSSLSARVGDRVTIKCQASQSISNYLAWYQQKPGKPPKFLIYDASDLASGVPSRFSGSGSGRDFTLTISSLQPEDFATYYCQQVYDSNNVENVFGTGTKVTVLGGGGGSGGGGSGGGGSGGGGSQSQLVESGGGLVQPGGSLRLSCAVSGFSLSSYAMGWVRQAPGKGLEYIGYISKIGTTYYASWAKGRFTISKDNSKNTVYLQMNSLRAEDTAVYFCARGSSSGGYLDDGFDPWGQGTLVTVSS What is its recorded pEC50?
8.52
